Catalogue of sequences with associated shRNA barcode abundance ratio t end/t zero (log2)
System: MDA-MB-231
run-description: shRNA barcode abundance ratio t_end/t_zero (depletion over 4 weeks of proliferation) (log2 ratio); higher = less depletion (weaker anti-proliferative effect of the shRNA)
condition-details: time after t zero 28 days
property: shRNA barcode abundance ratio t end/t zero (log2)

1) GCAAATTTCATGACCAGTAAA (targeted gene: TDGF1); -0.234
2) GGAACTTTAGTTGAAGCGTAA (targeted gene: APAF1); 0.303
3) GCTGGACAACTTGTTGTTAAA (targeted gene: IL10); 0.168
4) AGCATTGTCATGAGCTTAATA (targeted gene: API5); 0.169
5) GCCAAGTTCTTAGTTGCTGTA (targeted gene: CXCR4); -1.59
6) GGTATTCTCATCAAGAAACTT (targeted gene: BCL2A1); 0.349
7) GGATATTGAACAGAGTATTAA (targeted gene: ANXA4); -0.0211
8) CCTTTGAAAGTGGGTGGAATT (targeted gene: TNFAIP3); 0.0769
9) CCTTAAATCCTCATTGCAAAT (targeted gene: USP9X); -0.782
10) GCTCACTACCAAATGTTAATA (targeted gene: BAD); 0.223
11) GGCAGCTTCCTTGAACCATTA (targeted gene: SPHK1); -0.334
12) GCTATACGAATGGGATTTGAT (targeted gene: BIRC8); 0.211
13) GGAAGTGATCCAAATGTTAAA (targeted gene: BARD1); -2.23
14) CCAAATTATGTGTTTCCGAAA (targeted gene: IGF1R); 0.502
15) GGACATCTAGTCACTTGTAAA (targeted gene: XIAP); 0.00436
16) GGCTACAGCCTCGATTTATAT (targeted gene: IGFBP3); 0.0568
17) GCTTCCTACAGCACAACAAAT (targeted gene: VEGFA); 0.437
18) GCTCAGTGAGCCCATGGAATT (targeted gene: RELA); 0.332
19) GGATTCTCAACACTTTGAATT (targeted gene: ANXA4); 0.244
20) GCTGAGGAGGCTCAAGTTAAA (targeted gene: TGFB1); 0.277
21) CCTTGCTGTTGTGAAATCTAT (targeted gene: ANXA5); -0.252
22) CCTCATGTCTTGATAAGTTAA (targeted gene: FOXO1); 0.0815
23) CCATATAGTTCCTTGGGATTA (targeted gene: BCL2L2); 0.203
24) GCGTCTGGCCTCCTTCTATGA (targeted gene: BIRC7); 0.556
25) GCAGTATAGAGCGTGCAGATA (targeted gene: PTEN); -0.0774
26) GCTCAACAGATCCAATTTCAT (targeted gene: RBKS); -0.0517
27) AGAGAGAACTGCTCAGTAATT (targeted gene: BRE); 0.237
28) CCCGGGACTCCTGAGAACAAT (targeted gene: PRLR); -0.387
29) GCTCTTCCACTCAGGTGAGAA (targeted gene: LOC284939); -0.0337
30) GCGGTTCTTAGAAGAGTACTT (targeted gene: DAD1); -0.432
31) GGCACAACACTAATTACCATT (targeted gene: PROK2); 0.0935
32) GGCCCAGTGTTTCTTCTGCTT (targeted gene: BIRC5); -0.948
33) GGTCACTTTGTATATAGAATT (targeted gene: HBXIP); 0.371
34) GCACAAGCAGCTGATCCGATT (targeted gene: IL4); -0.0177
35) GGCAGGTATTTGACATATTAA (targeted gene: NFKB1); 0.217
36) GGCCTTGGAACTGATGAAGAT (targeted gene: ANXA1); 0.259
37) CGGTATTAAGTTGTAATTTAA (targeted gene: PROK2); 0.137
38) GCATCTTCTTCGGTGAAATAT (targeted gene: BNIP2); -0.0165
39) CCAGAGTAACTCTAGTCAGTT (targeted gene: NUP62); -2.05
40) GCAGGTATTTGACATATTAAA (targeted gene: NFKB1); 0.38
41) GGGAATCCAGTGTGTGAAGAA (targeted gene: RELA); 0.121
42) CCAACTAATCTTCGAATCGAA (targeted gene: SOCS2); 0.157
43) GCTTGTTGTTTGAGAAGTTTA (targeted gene: BAG3); 0.38
44) GGCCATTGTCACAGAGGATAA (targeted gene: MLH1); 0.62
